B1: glmS ribozyme (parent)
chain: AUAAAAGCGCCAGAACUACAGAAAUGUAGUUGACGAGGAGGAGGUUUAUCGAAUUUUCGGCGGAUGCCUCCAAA

Variants of: B1
assay_remarks: self-cleavage kobs at 40 uM GlcN6P; higher = faster cleavage; RNA array
settings: with glucosamine-6-phosphate
Fewer inactive variants are shown than the library holds.
measurement_type: self-cleavage kobs at 40 uM GlcN6P

Prompt line: Item under review: G60C A64U . Reported self-cleavage kobs at 40 uM GlcN6P?
Response line: < 1e-05 s⁻¹

Prompt line: Item under review: U46C U55G . Reported self-cleavage kobs at 40 uM GlcN6P?
Response line: 8.17e-05 s⁻¹

Prompt line: Item under review: U31C A42G . Reported self-cleavage kobs at 40 uM GlcN6P?
Response line: 0.000166 s⁻¹

Prompt line: Item under review: G43C A53C U56C . Reported self-cleavage kobs at 40 uM GlcN6P?
Response line: < 1e-05 s⁻¹

Prompt line: Item under review: G13A G32C G43U A48G U69A . Reported self-cleavage kobs at 40 uM GlcN6P?
Response line: < 1e-05 s⁻¹

Prompt line: Item under review: `A1C` . Reported self-cleavage kobs at 40 uM GlcN6P?
Response line: 0.00111 s⁻¹

Prompt line: Item under review: A14G A53C C71U . Reported self-cleavage kobs at 40 uM GlcN6P?
Response line: 0.000387 s⁻¹

Prompt line: Item under review: G7U G32U C67G . Reported self-cleavage kobs at 40 uM GlcN6P?
Response line: < 1e-05 s⁻¹

Prompt line: Item under review: A39U G51U C67U . Reported self-cleavage kobs at 40 uM GlcN6P?
Response line: < 1e-05 s⁻¹

Prompt line: Item under review: C50U C58U . Reported self-cleavage kobs at 40 uM GlcN6P?
Response line: < 1e-05 s⁻¹

Prompt line: Item under review: U46C C61G . Reported self-cleavage kobs at 40 uM GlcN6P?
Response line: < 1e-05 s⁻¹

Prompt line: Item under review: A6G C58A C67G . Reported self-cleavage kobs at 40 uM GlcN6P?
Response line: 0.000658 s⁻¹

Prompt line: Item under review: U30A A52U U54A C71A . Reported self-cleavage kobs at 40 uM GlcN6P?
Response line: < 1e-05 s⁻¹

Prompt line: Item under review: A12U A42G U46G G63U . Reported self-cleavage kobs at 40 uM GlcN6P?
Response line: < 1e-05 s⁻¹

Prompt line: Item under review: C8A C11U G38C C50U . Reported self-cleavage kobs at 40 uM GlcN6P?
Response line: < 1e-05 s⁻¹

Prompt line: Item under review: C11G C16A G38C . Reported self-cleavage kobs at 40 uM GlcN6P?
Response line: < 1e-05 s⁻¹

Prompt line: Item under review: A48U U56A C58A . Reported self-cleavage kobs at 40 uM GlcN6P?
Response line: < 1e-05 s⁻¹

Prompt line: Item under review: A12C A14C G60A A64C . Reported self-cleavage kobs at 40 uM GlcN6P?
Response line: < 1e-05 s⁻¹

Prompt line: Item under review: G44U C68U . Reported self-cleavage kobs at 40 uM GlcN6P?
Response line: < 1e-05 s⁻¹

Prompt line: Item under review: G7A C34A . Reported self-cleavage kobs at 40 uM GlcN6P?
Response line: < 1e-05 s⁻¹

Prompt line: Item under review: C34G G40A U55G . Reported self-cleavage kobs at 40 uM GlcN6P?
Response line: < 1e-05 s⁻¹

Prompt line: Item under review: U31A U69C . Reported self-cleavage kobs at 40 uM GlcN6P?
Response line: 0.000182 s⁻¹

Prompt line: Item under review: C11A A36C . Reported self-cleavage kobs at 40 uM GlcN6P?
Response line: < 1e-05 s⁻¹

Prompt line: Item under review: G29C C70U . Reported self-cleavage kobs at 40 uM GlcN6P?
Response line: 8.66e-05 s⁻¹

Prompt line: Item under review: G7A A15U C58A . Reported self-cleavage kobs at 40 uM GlcN6P?
Response line: < 1e-05 s⁻¹

Prompt line: Item under review: A14U G59A . Reported self-cleavage kobs at 40 uM GlcN6P?
Response line: < 1e-05 s⁻¹

Prompt line: Item under review: A12U G29A A39G A53U . Reported self-cleavage kobs at 40 uM GlcN6P?
Response line: 0.000581 s⁻¹

Prompt line: Item under review: G37C U46A . Reported self-cleavage kobs at 40 uM GlcN6P?
Response line: < 1e-05 s⁻¹

Prompt line: Item under review: A15G A48U U57C . Reported self-cleavage kobs at 40 uM GlcN6P?
Response line: < 1e-05 s⁻¹

Prompt line: Item under review: A12U A33C G37C . Reported self-cleavage kobs at 40 uM GlcN6P?
Response line: < 1e-05 s⁻¹

Prompt line: Item under review: A6C G51U U56A . Reported self-cleavage kobs at 40 uM GlcN6P?
Response line: < 1e-05 s⁻¹

Prompt line: Item under review: C8A U47C U65A . Reported self-cleavage kobs at 40 uM GlcN6P?
Response line: < 1e-05 s⁻¹

Prompt line: Item under review: A6G U30G . Reported self-cleavage kobs at 40 uM GlcN6P?
Response line: < 1e-05 s⁻¹

Prompt line: Item under review: A42G A64G . Reported self-cleavage kobs at 40 uM GlcN6P?
Response line: 0.000694 s⁻¹

Prompt line: Item under review: A6G C50G C68U . Reported self-cleavage kobs at 40 uM GlcN6P?
Response line: 5.04e-05 s⁻¹

Prompt line: Item under review: A33G A64U . Reported self-cleavage kobs at 40 uM GlcN6P?
Response line: < 1e-05 s⁻¹

Prompt line: Item under review: G32U G38A . Reported self-cleavage kobs at 40 uM GlcN6P?
Response line: < 1e-05 s⁻¹

Prompt line: Item under review: U47G C67G . Reported self-cleavage kobs at 40 uM GlcN6P?
Response line: 7.66e-05 s⁻¹

Prompt line: Item under review: G40U U47G . Reported self-cleavage kobs at 40 uM GlcN6P?
Response line: 4.04e-05 s⁻¹

Prompt line: Item under review: G9C C11A . Reported self-cleavage kobs at 40 uM GlcN6P?
Response line: < 1e-05 s⁻¹

Prompt line: Item under review: G7C U30A . Reported self-cleavage kobs at 40 uM GlcN6P?
Response line: < 1e-05 s⁻¹

Prompt line: Item under review: U30A G59A G63A . Reported self-cleavage kobs at 40 uM GlcN6P?
Response line: < 1e-05 s⁻¹

Prompt line: Item under review: A14C A48G U69C . Reported self-cleavage kobs at 40 uM GlcN6P?
Response line: < 1e-05 s⁻¹

Prompt line: Item under review: G7U C16G . Reported self-cleavage kobs at 40 uM GlcN6P?
Response line: < 1e-05 s⁻¹

Prompt line: Item under review: A39U G66A . Reported self-cleavage kobs at 40 uM GlcN6P?
Response line: 0.000403 s⁻¹

Prompt line: Item under review: C8G G43U U65A C71G . Reported self-cleavage kobs at 40 uM GlcN6P?
Response line: < 1e-05 s⁻¹

Every entry's value here was drawn from the supplement of paper PMC7125110.
